Examples of compounds with documented activity change, negative = inhibition follow.
Assay: AP1 Signaling Pathway (AID 357); note: % is set by controls: 0 for no effect and ±100 for the full control effect
Settings: ME-180 (cervical carcinoma) AP-1-bla reporter, EGF-induced, beta-lactamase ratio, 5 h; at 17.2 µM (top of the series) unless noted
Description: NCGC Assay Overview: Activator protein-1 (AP-1), a transcription factor, plays an important role in tumor genesis by regulating genes involved in cell proliferation, differentiation, apoptosis, and angiogenesis. AP-1 activity is induced by a complex network of signaling pathways that involves extracellular signals, such as growth factors. […] Library compounds were measured for their ability to modulate positively or negatively the action of EC50 EGF on reporter gene activity. […]
Results filed as inconclusive are left out. The source made the active and inactive calls. Calls come from the whole dose curve; as a rule, active = well fitted curve in either direction with a large enough effect (not every such curve was filed as active); inconclusive = small, poorly fitted or top-dose-only effect, or another doubt; inactive = flat fitted curve, though single readings scatter.

For orientation, consider the following solved cases.
O=C(O)c1cc2n(n1)C(C(F)(F)F)CC(c1ccccc1)N2 (configuration not stated)
3.84% (inactive)
C=CCSc1nnc2n(CCc3ccccc3)c(=O)c3c4c(sc3n12)COC(C)(C)C4
-23.5% (inactive)
CC(=O)C1=C(O)C(=O)N(Cc2cccnc2)C1c1ccccc1Cl (configuration not stated)
3.06% (inactive)
CN(C)c1ccc(C=NCC2(O)CCOC(C)(C)C2)cc1 (configuration not stated)
-0.248% (inactive)
CCOc1ccc(CSC(CC(=O)O)C(=O)O)cc1 (configuration not stated)
-0.441% (inactive)
O=C1[C@@H]2C=CC=CC2=NC(=S)N1CCN1CCC(=C(c2ccc(F)cc2)c2ccc(F)cc2)CC1
26.4% [at 38 µM] (inactive)

Here is the next item to consider.
I have this compound here, CCOC(=O)c1[nH]c2cc3c(cc2c1NC(=O)CN1CCc2ccccc2C1)OCO3 , and I need its recorded activity change, negative = inhibition.
-23.5% (inactive)
